# systemName: T1, monovalent human TrkA extracellular region (human, UniProt P04629 33-423)
# T1 construct: also called recombinant monovalent human TrkA extracellular domain
# T1 sequence (P04629 33-423): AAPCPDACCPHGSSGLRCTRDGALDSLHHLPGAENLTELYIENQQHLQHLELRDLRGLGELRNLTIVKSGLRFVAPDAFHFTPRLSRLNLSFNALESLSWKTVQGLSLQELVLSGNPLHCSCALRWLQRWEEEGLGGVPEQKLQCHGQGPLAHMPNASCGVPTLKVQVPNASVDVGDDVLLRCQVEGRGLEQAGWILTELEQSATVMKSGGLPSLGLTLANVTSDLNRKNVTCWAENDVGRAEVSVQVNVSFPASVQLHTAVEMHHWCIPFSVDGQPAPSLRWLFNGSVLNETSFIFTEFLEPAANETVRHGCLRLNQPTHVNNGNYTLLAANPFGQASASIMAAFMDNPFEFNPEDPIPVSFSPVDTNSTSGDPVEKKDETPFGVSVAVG
# testSummary: SPR (BIAcore 2000), antibody captured via Fc, monovalent TrkA extracellular region as analyte
Answer each item with its documented koff.
Answers are plain numbers, in s⁻¹.

Consider the reported koff for these binders:
[[record]]
binder = "GBR VH1(V37A)VL1 (antibody, human IgG1, kappa, V domains shown, IGHG1, kappa) VH: EVQLLESGGGLVQPGGSLRLSCAASGFTFSTYTMSWARQAPGKGLEWVSYISKGGGSTYYPDTVKGRFTISRDNSKNTLYLQMNSLRAEDTAVYYCAKGAMYGNDFFYPMDYWGQGTTVTVSS VL: EIVLTQSPATLSLSPGERATLSCSASSSVSYMHWYQQKPGQAPRLLIYTTSNLASGIPARFSGSGSGTDFTLTISSLEPEDFAVYYCHQWSSYPWTFGQGTKLEIKR"
observedmeasurement = 0.00663

[[record]]
binder = "GBR VH3(V37A)VL3 (antibody, human IgG1, kappa, V domains shown, IGHG1, kappa) VH: EVQLLESGGGLVQPGGSLRLSCAASGFTFSTYTMSWARQTPGKRLEWVAYISKGGGSTYYPDTVKGRFTISRDNSKNTLYLQMNSLRAEDTAVYYCAKGAMYGNDFFYPMDYWGQGTTVTVSS VL: QIVLTQSPATLSLSPGERATLSCSASSSVSYMHWYQQKPGQSPRLLIYTTSNLASGIPSRFSGSGSGTFYTLTISSLEPEDFAVYYCHQWSSYPWTFGGGTKLEIKR"
observedmeasurement = 0.00295

[[record]]
binder = "GBR VH5(V37A)VL3 (antibody, human IgG1, kappa, V domains shown, IGHG1, kappa) VH: EVKLLESGGGLVQPGGSLRLSCAASGFTFSTYTMSWARQTPGKRLEWVAYISKGGGSTYYPDTVKGRFTISRDNSKNTLYLQMNSLRAEDTAVYYCARGAMYGNDFFYPMDYWGQGTTVTVSS VL: QIVLTQSPATLSLSPGERATLSCSASSSVSYMHWYQQKPGQSPRLLIYTTSNLASGIPSRFSGSGSGTFYTLTISSLEPEDFAVYYCHQWSSYPWTFGGGTKLEIKR"
observedmeasurement = 0.00205

[[record]]
binder = "BXhVH1VL1 (antibody, human IgG1, kappa, V domains shown, IGHG1, kappa) VH: EVQLLESGGGLVQPGGSLRLSCAASGFTFSTYTMSWVRQAPGKGLEWVSYISKGGGSTYYPDTVKGRFTISRDNSKNTLYLQMNSLRAEDTAVYYCAKGAMYGNDFFYPMDYWGQGTTVTVSS VL: EIVLTQSPATLSLSPGERATLSCSASSSVSYMHWYQQKPGQAPRLLIYTTSNLASGIPARFSGSGSGTDFTLTISSLEPEDFAVYYCHQWSSYPWTFGQGTKLEIKR"
observedmeasurement = 0.0133


Here are 3 binders. What values of koff were reported for them?
1. BXhVH5VL3 (antibody, human IgG1, kappa, V domains shown) VH: EVKLLESGGGLVQPGGSLRLSCAASGFTFSTYTMSWVRQTPGKRLEWVAYISKGGGSTYYPDTVKGRFTISRDNSKNTLYLQMNSLRAEDTAVYYCARGAMYGNDFFYPMDYWGQGTTVTVSS VL: QIVLTQSPATLSLSPGERATLSCSASSSVSYMHWYQQKPGQSPRLLIYTTSNLASGIPSRFSGSGSGTFYTLTISSLEPEDFAVYYCHQWSSYPWTFGGGTKLEIKR
2. BXhVH3VL3 (antibody, human IgG1, kappa, V domains shown, IGHG1, kappa) VH: EVQLLESGGGLVQPGGSLRLSCAASGFTFSTYTMSWVRQTPGKRLEWVAYISKGGGSTYYPDTVKGRFTISRDNSKNTLYLQMNSLRAEDTAVYYCAKGAMYGNDFFYPMDYWGQGTTVTVSS VL: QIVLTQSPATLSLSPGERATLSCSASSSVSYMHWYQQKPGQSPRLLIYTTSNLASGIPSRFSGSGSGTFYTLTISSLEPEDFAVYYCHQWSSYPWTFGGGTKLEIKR
3. GBR VH3(V37A)VL1 (antibody, human IgG1, kappa, V domains shown, IGHG1, kappa) VH: EVQLLESGGGLVQPGGSLRLSCAASGFTFSTYTMSWARQTPGKRLEWVAYISKGGGSTYYPDTVKGRFTISRDNSKNTLYLQMNSLRAEDTAVYYCAKGAMYGNDFFYPMDYWGQGTTVTVSS VL: EIVLTQSPATLSLSPGERATLSCSASSSVSYMHWYQQKPGQAPRLLIYTTSNLASGIPARFSGSGSGTDFTLTISSLEPEDFAVYYCHQWSSYPWTFGQGTKLEIKR

Response:
[0.00395, 0.00459, 0.00471]
